src = patent US20110039779A1

Molecular target: IGF-1R on SW480 cells (UniProt P08069 31-1367, limits assumed)
Sequence (P08069 31-1367 limits assumed): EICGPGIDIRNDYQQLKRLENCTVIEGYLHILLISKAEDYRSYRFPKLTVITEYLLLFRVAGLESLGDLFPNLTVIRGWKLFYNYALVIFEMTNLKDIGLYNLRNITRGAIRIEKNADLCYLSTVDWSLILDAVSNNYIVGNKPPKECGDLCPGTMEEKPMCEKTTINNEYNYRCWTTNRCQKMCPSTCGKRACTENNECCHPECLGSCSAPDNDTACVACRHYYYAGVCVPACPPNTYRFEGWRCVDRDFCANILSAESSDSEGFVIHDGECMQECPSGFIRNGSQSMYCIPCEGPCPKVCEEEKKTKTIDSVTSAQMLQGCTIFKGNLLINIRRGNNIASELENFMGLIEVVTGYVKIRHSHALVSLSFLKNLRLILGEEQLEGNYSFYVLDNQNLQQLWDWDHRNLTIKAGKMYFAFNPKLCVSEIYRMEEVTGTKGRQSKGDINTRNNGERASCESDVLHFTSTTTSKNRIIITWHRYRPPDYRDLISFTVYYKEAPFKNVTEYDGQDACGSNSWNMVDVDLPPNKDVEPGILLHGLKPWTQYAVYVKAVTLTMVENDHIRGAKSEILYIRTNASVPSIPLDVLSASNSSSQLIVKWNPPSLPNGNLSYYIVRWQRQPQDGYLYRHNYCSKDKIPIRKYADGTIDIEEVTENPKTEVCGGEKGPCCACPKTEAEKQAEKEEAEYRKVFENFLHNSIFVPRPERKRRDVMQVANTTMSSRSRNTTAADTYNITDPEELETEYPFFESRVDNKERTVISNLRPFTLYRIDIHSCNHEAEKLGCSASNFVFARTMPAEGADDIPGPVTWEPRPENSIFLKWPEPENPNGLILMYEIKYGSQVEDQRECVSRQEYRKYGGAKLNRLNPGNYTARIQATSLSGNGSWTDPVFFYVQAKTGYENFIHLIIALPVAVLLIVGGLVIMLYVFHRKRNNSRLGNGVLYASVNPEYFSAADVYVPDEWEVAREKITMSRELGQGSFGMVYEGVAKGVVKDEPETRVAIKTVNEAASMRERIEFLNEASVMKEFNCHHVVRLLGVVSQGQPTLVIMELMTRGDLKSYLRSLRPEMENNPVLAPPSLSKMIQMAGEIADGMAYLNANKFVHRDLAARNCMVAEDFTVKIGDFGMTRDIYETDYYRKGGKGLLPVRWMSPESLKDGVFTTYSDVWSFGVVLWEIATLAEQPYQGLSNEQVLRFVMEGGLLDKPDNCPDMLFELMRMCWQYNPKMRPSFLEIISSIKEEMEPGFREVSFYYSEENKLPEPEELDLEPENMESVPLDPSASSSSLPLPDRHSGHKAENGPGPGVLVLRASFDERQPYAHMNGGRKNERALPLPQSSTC
Assay: cell-based or functional assay
endpoint name: IC50 in SW480 (M), peptide alone

- VQDDCRGRPCGDADSFYEWFDQQAS [F263]: > 1e-06 M
- EVDRDCQARPCGDAANFYDWFGQQGTE [F269]: > 1e-05 M
- SFYSCLESLVNGPAEKSRGQWDGCR [F249]: > 1e-05 M
- SFYSCLESLVTGPAEKSRGQWEGCRK [F292]: 1e-06 M
- SFYSCLESLVQGPAEKSRGQWEGCRK [F293]: 1e-07 M
- RQWDCRGRPCGDAESFYEWFDQQRS [F264]: > 1e-05 M
